assayed-target: hTRPA1 (Homo sapiens, UniProt O75762)
Construct: gene TRPA1
Sequence (O75762 whole entry): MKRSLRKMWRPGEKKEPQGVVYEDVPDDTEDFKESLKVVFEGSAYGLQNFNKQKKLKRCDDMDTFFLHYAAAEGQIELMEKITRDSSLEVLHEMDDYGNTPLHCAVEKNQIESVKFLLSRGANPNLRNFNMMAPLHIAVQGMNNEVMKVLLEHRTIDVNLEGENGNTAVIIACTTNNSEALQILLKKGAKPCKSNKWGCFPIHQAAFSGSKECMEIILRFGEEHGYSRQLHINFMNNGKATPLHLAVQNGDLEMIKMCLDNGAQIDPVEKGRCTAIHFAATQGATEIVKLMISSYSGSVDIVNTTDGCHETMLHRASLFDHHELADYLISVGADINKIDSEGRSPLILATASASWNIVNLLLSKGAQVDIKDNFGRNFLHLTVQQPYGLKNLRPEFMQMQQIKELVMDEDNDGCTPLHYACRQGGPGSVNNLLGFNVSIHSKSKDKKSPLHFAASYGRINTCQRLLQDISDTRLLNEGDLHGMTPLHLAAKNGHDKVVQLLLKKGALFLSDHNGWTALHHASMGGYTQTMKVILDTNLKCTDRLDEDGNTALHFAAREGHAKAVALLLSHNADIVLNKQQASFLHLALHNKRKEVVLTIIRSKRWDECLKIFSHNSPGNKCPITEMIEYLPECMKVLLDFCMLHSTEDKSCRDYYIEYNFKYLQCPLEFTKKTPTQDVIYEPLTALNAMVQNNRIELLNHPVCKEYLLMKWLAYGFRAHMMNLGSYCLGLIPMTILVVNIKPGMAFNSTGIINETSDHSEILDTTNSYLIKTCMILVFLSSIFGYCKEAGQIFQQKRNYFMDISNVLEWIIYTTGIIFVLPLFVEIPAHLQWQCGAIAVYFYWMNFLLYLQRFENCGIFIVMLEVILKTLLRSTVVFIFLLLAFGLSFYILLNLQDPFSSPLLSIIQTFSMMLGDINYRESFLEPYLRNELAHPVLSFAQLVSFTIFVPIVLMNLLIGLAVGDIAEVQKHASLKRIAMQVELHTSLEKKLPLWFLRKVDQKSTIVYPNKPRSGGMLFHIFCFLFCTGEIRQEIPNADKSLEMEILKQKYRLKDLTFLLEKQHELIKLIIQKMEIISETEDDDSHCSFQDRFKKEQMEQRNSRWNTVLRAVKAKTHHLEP
assay: ratiometric calcium imaging and whole-cell patch clamp in CHO cells with inducible hTRPA1; non-induced cells as control
Format: cell-based
endpoint: EC50 (µM)
Your answer should be a plain number; it is taken to be in µM.

Bench note: what EC50 did COc1ccc(C=O)cc1 show?
910

----------
assayed-target: hTRPA1 (Homo sapiens, UniProt O75762)
Construct: gene TRPA1
assay: ratiometric calcium imaging and whole-cell patch clamp in CHO cells with inducible hTRPA1; non-induced cells as control
Assay type: cell-based
experimental-conditions: read-out: EC50
endpoint: pEC50
pEC50 here: minus log base 10 of the concentration, concentration in moles per litre.

> print(dat)
                             molecule  endpoint  measured.number
1  CC(C)c1ccc(C=O)cc1 [cuminaldehyde]     pEC50             3.14

Any idea what its pEC50 is? The molecule is C/C=C(\C)C=O [tiglic aldehyde]
2.83

Just for reference, paper PMC7343857 is where these values come from.
